tested on: COLO-824; test: cells; format: functional, cell-based, Homo sapiens; details: Homo sapiens, COLO-824
Description: SANGER: Inhibition of human COLO-824 cell growth in a cell viability assay.
Assign IC50 to each entry below.

Solved entries:
>  <compound>
Cn1cc(C2=C(c3ccc(Cl)cc3Cl)C(=O)NC2=O)c2ccccc21

>  <IC50>
> 10 µM

$$$$
>  <compound>
CCC1=C[C@@H]2CN(C1)Cc1c([nH]c3ccccc13)[C@@](C(=O)OC)(c1cc3c(cc1OC)N(C)[C@H]1[C@@](O)(C(=O)OC)[C@H](OC(C)=O)[C@]4(CC)C=CCN5CC[C@]31[C@@H]54)C2

>  <IC50>
0.0472 µM

$$$$
>  <compound>
Cc1ccc(Nc2nccc(N(C)c3ccc4c(C)n(C)nc4c3)n2)cc1S(N)(=O)=O

>  <IC50>
> 8 µM

$$$$
>  <compound>
C=C1C(=O)O[C@@H]2C3O[C@]3(C)CC/C=C(\C)CC[C@@H]12 (some centres not stated)

>  <IC50>
> 5 µM

$$$$
>  <compound>
CN(Cc1cnc2nc(N)nc(N)c2n1)c1ccc(C(=O)N[C@@H](CCC(=O)O)C(=O)O)cc1 [METHOTREXATE]

>  <IC50>
> 0.2 µM

$$$$
>  <compound>
CS(=O)(=O)CCNCc1ccc(-c2ccc3ncnc(Nc4ccc(OCc5cccc(F)c5)c(Cl)c4)c3c2)o1

>  <IC50>
> 2 µM

$$$$

Here is the next item to consider.
Lookup result for O=C(c1cc(Cc2n[nH]c(=O)c3ccccc23)ccc1F)N1CCN(C(=O)C2CC2)CC1 ; measured IC50: > 5 µM
